testedTarget: T1, nSR100 (Mus musculus, UniProt Q8BKA3)
T1 construct: host or cells: mouse N2A cells
T1 sequence (Q8BKA3 1-608): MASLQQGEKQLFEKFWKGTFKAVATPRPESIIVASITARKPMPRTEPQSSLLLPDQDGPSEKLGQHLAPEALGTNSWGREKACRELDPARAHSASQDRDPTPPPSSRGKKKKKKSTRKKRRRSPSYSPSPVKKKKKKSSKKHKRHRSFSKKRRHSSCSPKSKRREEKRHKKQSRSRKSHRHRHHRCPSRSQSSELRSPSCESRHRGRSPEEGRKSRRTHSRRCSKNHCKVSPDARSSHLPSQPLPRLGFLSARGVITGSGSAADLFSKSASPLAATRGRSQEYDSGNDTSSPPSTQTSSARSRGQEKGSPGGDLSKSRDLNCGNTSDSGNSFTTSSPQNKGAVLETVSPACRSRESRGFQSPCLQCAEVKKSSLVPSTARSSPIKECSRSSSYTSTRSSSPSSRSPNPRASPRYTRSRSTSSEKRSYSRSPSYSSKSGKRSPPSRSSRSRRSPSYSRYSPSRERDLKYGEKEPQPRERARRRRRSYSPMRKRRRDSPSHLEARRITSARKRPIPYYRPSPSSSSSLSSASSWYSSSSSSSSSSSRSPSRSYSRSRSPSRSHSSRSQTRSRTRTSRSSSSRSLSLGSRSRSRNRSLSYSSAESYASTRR
protocolSummary: AP-MS nSR100 interaction partners from mouse N2A cells (Table 5)
Format: binding
testParameters: bait Srrm4
Below is a list of entries, each paired with its recorded MaxP (maximal SAINT score) value.

# molecule, MaxP (maximal SAINT score)
rows = [
    ("Snrpb2 (protein, UniProt Q9CQI7 1-225, looked up) U2 small nuclear …: MDIRPNHTIYINNMNDKIKKEELKRSLYALFSQFGHVVDIVALKTMKMRGQAFVIFKELGSSTNALRQLQGFPFYGKPMRIQYAKTDSDIISKMRGTFADKEKKKEKKKAKTMEQAAAAANKKPGQGTPNAANTQGTAAPNPQVPDYPPNYILFLNNLPEETNEMMLSMLFNQFPGFKEVRLVPGRHDIAFVEFENDGQAGAARDALQGFKITPSHAMKITYAKK", 1),
    ("Csnk2a1 (protein, UniProt Q60737 1-391, looked up) Casein kinase II subunit alpha: MSGPVPSRARVYTDVNTHRPREYWDYESHVVEWGNQDDYQLVRKLGRGKYSEVFEAINITNNEKVVVKILKPVKKKKIKREIKILENLRGGPNIITLADIVKDPVSRTPALVFEHVNNTDFKQLYQTLTDYDIRFYMYEILKALDYCHSMGIMHRDVKPHNVMIDHEHRKLRLIDWGLAEFYHPGQEYNVRVASRYFKGPELLVDYQMYDYSLDMWSLGCMLASMIFRKEPFFHGHDNYDQLVRIAKVLGTEDLYDYIDKYNIELDPRFNDILGRHSRKRWERFVHSENQHLVSPEALDFLDKLLRYDHQSRLTAREAMEHPYFYTVVKDQARMSSTSMAGGSTPVSSANMMSGISSVPTPSPLGPLAGSPVIAAANSLGIPVPAAAGAQQ", 1),
]
